tested system: T1, human IL-23 (human, UniProt P29460 23-328; Q9NPF7 20-189)
T1 construct: Recombinant (Ebioscience); HIS-tagged in flow cytometry, biotinylated in some assays; also called hIL-23; rhIL-23
T1 sequence 1: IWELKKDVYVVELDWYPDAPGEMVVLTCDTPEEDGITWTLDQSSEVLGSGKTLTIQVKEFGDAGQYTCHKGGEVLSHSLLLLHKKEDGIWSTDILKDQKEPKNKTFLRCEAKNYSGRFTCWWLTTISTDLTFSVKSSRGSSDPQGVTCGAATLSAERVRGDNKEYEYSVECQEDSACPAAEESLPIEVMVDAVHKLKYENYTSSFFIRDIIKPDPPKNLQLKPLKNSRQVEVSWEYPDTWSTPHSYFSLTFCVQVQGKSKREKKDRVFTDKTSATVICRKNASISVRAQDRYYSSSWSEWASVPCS
T1 sequence 2: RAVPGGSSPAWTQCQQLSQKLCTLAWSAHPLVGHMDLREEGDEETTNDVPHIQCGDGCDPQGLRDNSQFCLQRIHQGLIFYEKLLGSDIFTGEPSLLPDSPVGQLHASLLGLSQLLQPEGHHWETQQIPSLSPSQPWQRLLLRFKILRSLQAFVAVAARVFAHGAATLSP
protocol summary: SPR, purified scFv captured via FLAG
As shown below, each of these binders has a reported koff value.

binder	unit string	koff
scFv AQ-G10 (scFv, scFv-80 variant: VH K12E, R66G; not shown: proprietary C-terminal FLAG tag) scFv: QVQLVQSGAEVEKPGASVKVSCKASGYTFTDYYLHWVRQAPGQGLEWMGWIDPENGDTEYAPKFQGGVTMTTDTSTSTAYMELRSLRSDDTAVYYCNANKELRYFDVWGQGTMVTVSSGGGGSGGGGSGGGGSEIVMTQSPATLSVSPGERATLSCRASQSISINLHWYQQKPGQAPRLLIYFASQSISGIPARFSGSGSGTEFTLTISSLQSEDFAVYYCQQSNSFPLTFGGGTKVEIKR	s⁻¹	4.9e-05
scFv BU-B1 (scFv, scFv-80 variant: VH L34M; not shown: proprietary C-terminal FLAG tag) scFv: QVQLVQSGAEVKKPGASVKVSCKASGYTFTDYYMHWVRQAPGQGLEWMGWIDPENGDTEYAPKFQGRVTMTTDTSTSTAYMELRSLRSDDTAVYYCNANKELRYFDVWGQGTMVTVSSGGGGSGGGGSGGGGSEIVMTQSPATLSVSPGERATLSCRASQSISINLHWYQQKPGQAPRLLIYFASQSISGIPARFSGSGSGTEFTLTISSLQSEDFAVYYCQQSNSFPLTFGGGTKVEIKR	s⁻¹	3.7e-05
scFv CE-B1 (scFv, scFv-80 variant: VH F29L; not shown: proprietary C-terminal FLAG tag) scFv: QVQLVQSGAEVKKPGASVKVSCKASGYTLTDYYLHWVRQAPGQGLEWMGWIDPENGDTEYAPKFQGRVTMTTDTSTSTAYMELRSLRSDDTAVYYCNANKELRYFDVWGQGTMVTVSSGGGGSGGGGSGGGGSEIVMTQSPATLSVSPGERATLSCRASQSISINLHWYQQKPGQAPRLLIYFASQSISGIPARFSGSGSGTEFTLTISSLQSEDFAVYYCQQSNSFPLTFGGGTKVEIKR	s⁻¹	3e-05
scFv AV-F11 (scFv, scFv-80 variant: VH S112P; VL I75T; not shown: proprietary C-terminal FLAG tag) scFv: QVQLVQSGAEVKKPGASVKVSCKASGYTFTDYYLHWVRQAPGQGLEWMGWIDPENGDTEYAPKFQGRVTMTTDTSTSTAYMELRSLRSDDTAVYYCNANKELRYFDVWGQGTMVTVPSGGGGSGGGGSGGGGSEIVMTQSPATLSVSPGERATLSCRASQSISINLHWYQQKPGQAPRLLIYFASQSISGIPARFSGSGSGTEFTLTTSSLQSEDFAVYYCQQSNSFPLTFGGGTKVEIKR	s⁻¹	2.5e-05
scFv AX-G4 (scFv, scFv-80 variant: VL S26P; not shown: proprietary C-terminal FLAG tag) scFv: QVQLVQSGAEVKKPGASVKVSCKASGYTFTDYYLHWVRQAPGQGLEWMGWIDPENGDTEYAPKFQGRVTMTTDTSTSTAYMELRSLRSDDTAVYYCNANKELRYFDVWGQGTMVTVSSGGGGSGGGGSGGGGSEIVMTQSPATLSVSPGERATLSCRAPQSISINLHWYQQKPGQAPRLLIYFASQSISGIPARFSGSGSGTEFTLTISSLQSEDFAVYYCQQSNSFPLTFGGGTKVEIKR	s⁻¹	5.5e-05
scFv AU-G9 (scFv, scFv-80 variant: VH Q43R; VL I55T; not shown: proprietary C-terminal FLAG tag) scFv: QVQLVQSGAEVKKPGASVKVSCKASGYTFTDYYLHWVRQAPGRGLEWMGWIDPENGDTEYAPKFQGRVTMTTDTSTSTAYMELRSLRSDDTAVYYCNANKELRYFDVWGQGTMVTVSSGGGGSGGGGSGGGGSEIVMTQSPATLSVSPGERATLSCRASQSISINLHWYQQKPGQAPRLLIYFASQSTSGIPARFSGSGSGTEFTLTISSLQSEDFAVYYCQQSNSFPLTFGGGTKVEIKR	s⁻¹	4.4e-05
scFv CR-B1 (scFv, scFv-80 variant: VH D85E; not shown: proprietary C-terminal FLAG tag) scFv: QVQLVQSGAEVKKPGASVKVSCKASGYTFTDYYLHWVRQAPGQGLEWMGWIDPENGDTEYAPKFQGRVTMTTDTSTSTAYMELRSLRSEDTAVYYCNANKELRYFDVWGQGTMVTVSSGGGGSGGGGSGGGGSEIVMTQSPATLSVSPGERATLSCRASQSISINLHWYQQKPGQAPRLLIYFASQSISGIPARFSGSGSGTEFTLTISSLQSEDFAVYYCQQSNSFPLTFGGGTKVEIKR	s⁻¹	4.1e-05
scFv BB-A9 (scFv, scFv-80 variant: VH T28A, T68S; not shown: proprietary C-terminal FLAG tag) scFv: QVQLVQSGAEVKKPGASVKVSCKASGYAFTDYYLHWVRQAPGQGLEWMGWIDPENGDTEYAPKFQGRVSMTTDTSTSTAYMELRSLRSDDTAVYYCNANKELRYFDVWGQGTMVTVSSGGGGSGGGGSGGGGSEIVMTQSPATLSVSPGERATLSCRASQSISINLHWYQQKPGQAPRLLIYFASQSISGIPARFSGSGSGTEFTLTISSLQSEDFAVYYCQQSNSFPLTFGGGTKVEIKR	s⁻¹	4.4e-05
